Biological target: Fibroblast growth factor 10 (Homo sapiens) (UniProt O15520)
Sequence (O15520 whole entry, looked up): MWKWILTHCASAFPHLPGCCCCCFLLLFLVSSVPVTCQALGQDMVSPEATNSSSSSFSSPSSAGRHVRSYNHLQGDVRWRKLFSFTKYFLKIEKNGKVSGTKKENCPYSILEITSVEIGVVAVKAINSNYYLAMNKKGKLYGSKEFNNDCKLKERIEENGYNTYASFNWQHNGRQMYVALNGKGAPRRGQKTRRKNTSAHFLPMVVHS
Assay: FGF10 binders on small-molecule microarrays, primary screen, biochemical, small-molecule microarray, 635 nm fluorescence (AID 1102)
Conditions: FGF10 binding, fluorescence 635 nm, higher = more signal
measurement.kind: composite z-score

>  <compound>
CC[C@H](C)C(=O)O[C@H]1CC[C@]2(C)C3=C(CCC2C1(C)C)[C@]1(C)CC[C@H]([C@H](C)CCCC(C)C)[C@@]1(C)CC3 (stereo not given in full)

>  <composite z-score>
0.48

$$$$

What value of measured composite z-score is listed for COC(=O)[C@@]1(Cc2ccc(F)cc2)[C@H]2c3cc(C(=O)N(C)C)n(CCn4cc([N+](=O)[O-])nc4C)c3C[C@H]2CN1C(=O)c1ccccc1 ?
-0.279

What value of measured composite z-score is listed for [N-]=[N+]=NCc1ccccc1C[C@]1(C(=O)NCc2ccccc2)N=C(c2ccc(OCCCO)cc2)O[C@H]1c1ccccc1CN=[N+]=[N-] ?
-0.0516

What value of measured composite z-score is listed for COC(=O)c1ccc([C@H](NC(=O)c2ccccc2)[C@]2(C)C[C@H]2C2CCCCC2)cc1 ?
0.225

What value of measured composite z-score is listed for CCN(CC)c1ccc(N2CC=CC34O[C@@H]5C=CCOC(=O)[C@@H]5[C@H]3C(=O)N(CCCO)[C@@H]4C2=O)cc1 (stereo not given in full) ?
-0.946

What value of measured composite z-score is listed for C[N+](C)(C)CCCCCCNC(=O)[C@@H]1C[C@@H]2C(=O)N[C@@H](Cc3ccccc3)C(=O)N2[C@@H]1c1ccc(O)cc1 ?
1.21

What value of measured composite z-score is listed for COCCCNC(=O)[C@@H]1c2ccccc2C(=O)N(C2CCCCC2)[C@H]1c1ccc(CO)cc1 ?
-0.779

What value of measured composite z-score is listed for C=CCOC(=O)[C@H]1[C@@H]2C(=O)O[C@@H](c3ccccc3)[C@@H](c3ccccc3)N2[C@@H](c2ccc(OCCOC(=O)[C@@H]3C[C@@H]4C(=O)N[C@@H](Cc5ccccc5)C(=O)N4[C@@H]3c3ccc(O)cc3)cc2)[C@]12C(=O)Nc1ccccc12 ?
1.18

###

Biological target: Homeobox protein Hox-A13 (Mus musculus)
Assay: inhibitors of HoxA13-DNA binding, primary screen, biochemical, fluorescence polarization, labeled oligonucleotide (AID 1185)
Conditions: 15 min, higher = more signal, called active from +8 up or from −8 down
Each entry below lists one item and its recorded z-score value.
Provide a numeric answer; units are not to be included.

// worked examples, z-score included
>  <chem.smiles>
CCCC[C@H]1OB(O)C[C@H]2C1=C(C)C[C@H]1C(=O)C=CC(=O)[C@H]12

>  <z-score>
-6.4

$$$$
>  <chem.smiles>
C=C(CC1([C@@H](NP(=O)(c2ccccc2)c2ccccc2)[C@H]2C[C@@H]2CCN(C(=O)OCC)S(=O)(=O)c2ccc(C)cc2)CC1)c1ccccc1

>  <z-score>
-2.18

$$$$

I'm curious: which z-score was measured for [N-]=[N+]=NCc1ccccc1[C@H]1OC(c2ccc(OCCCO)cc2)=N[C@@]1(Cc1ccccc1)C(=O)N1CCOCC1 tested on Homeobox protein Hox-A13 (Mus musculus)?
-3.37

I'm curious: which z-score was measured for C=C(COC)/C(=C/C[C@H](OC(=O)c1ccncc1)c1cccc(OCCO)c1)c1cnc2ccccc2c1 tested on Homeobox protein Hox-A13 (Mus musculus)?
-4.94

###

Assay: S. cerevisiae growth modulation with rapamycin, primary screen, strain BY4716, OD600, 96 h (AID 1091); further: test concentration not given here
Details: higher = more signal, called active from +8 up or from −8 down
Calls of active or inactive are those of the source.
measurement.kind: z-score

// worked examples, z-score included
>  <molecule>
Cc1ccc(F)cc1S(=O)(=O)N[C@@H]1CCN(Cc2ccc3c(c2)OCO3)C1

>  <z-score>
1.23 (inactive)

$$$$
>  <molecule>
CC(C)(C)OC(=O)CC[C@]1(C(N)=O)N=C(c2ccc(OCCCO)cc2)O[C@H]1c1ccccc1CN=[N+]=[N-]

>  <z-score>
0.56 (inactive)

$$$$
>  <molecule>
COc1ccc(CCNC(=O)[C@@]2(Sc3ccc(C)cc3)CC(=O)N(Cc3cc(C(F)(F)F)cc(C(F)(F)F)c3)[C@@H]2c2ccc(CO)cc2)cc1

>  <z-score>
-0.683 (inactive)

$$$$

Moving on to the next molecule.
What value of measured z-score is listed for CCC(CC)C(O)C1C=CC2C(=O)N(C)C(=O)C2N1N1CCCCC1 (centres undefined) ?
-0.537 (inactive)

###

Each entry below lists one item and its recorded z-score value.
Assay: E. coli acrAB mutant growth effects, primary screen, E. coli filamentation inducers, strain DRC39, OD650, 24 h (AID 1178);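 further: growth measured as culture turbidity by optical density at 650 nm; test concentration not given here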
Conditions: higher = more signal, called active from +8 up or from −8 down
Provide a numeric answer; units are not to be included.

// worked examples, z-score included
>  <compound>
CCOC(=O)C1=CC[C@@H](c2ccccc2Cl)N(S(=O)(=O)c2ccc(C)cc2)[C@H]1c1cccc(OC)c1

>  <z-score>
-0.484

$$$$
>  <compound>
C=C(CCCC)/C(=C/C[C@H](OC(C)=O)c1cccc(OCCO)c1)c1cc(C(=O)OC)ccc1OC

>  <z-score>
1.85

$$$$
>  <compound>
NCCCC[C@@H]1NC(=O)[C@H]2C[C@@H](C(=O)O)[C@@H](c3cccc(OCCO)c3)N2C1=O

>  <z-score>
0.191

$$$$

What value of measured z-score is listed for [N-]=[N+]=NCc1ccccc1[C@H]1OC(c2ccc(OCCCO)cc2)=N[C@@]1(Cc1ccccc1)C(=O)N1CCOCC1 ?
-0.0844

What value of measured z-score is listed for C=CCC(OC(C)=O)[C@@H]1[C@@H](N(Cc2ccc(-c3cccc(C(F)(F)F)c3)o2)C(=O)Cc2ccc(OC)cc2)c2cc(OCCCO)ccc2N1C(=O)c1ccc2ccccc2n1 (stereo not given in full) ?
-0.267

###

Experiment: basal S. cerevisiae growth modulation, no modifier, primary screen, OD600, strain BY4716, 24 h, basal condition (AID 1173)
Details: OD600, 24 h, higher = more signal, called active from +8 up or from −8 down
measurement.kind: z-score
Provide a numeric answer; units are not to be included.

// worked examples, z-score included
>  <compound>
COCCOC(=O)N1C(=O)[C@@]2(c3cc(C#CC4(O)CCCCCC4)ccc31)[C@H](C(=O)N1CCc3cc(OC)c(OC)cc3C1)[C@H]1C(=O)O[C@H](c3ccccc3)[C@H](c3ccccc3)N1[C@@H]2c1ccc(O)cc1

>  <endpoint.result>
0.257

$$$$
>  <compound>
CC(C)C[C@H]1NC(=O)[C@H](Cc2ccccc2)NC(=O)[C@@]23C(=O)N[C@@H](Cc4ccccc4)C2[C@H](C)[C@@]2(C)O[C@H]2C3/C=C/C/C=C\CNC1=O (some centres not stated)

>  <endpoint.result>
-0.396

$$$$
>  <compound>
COC(=O)[C@@]1(Cc2ccc(F)cc2)[C@H]2c3cc(C(=O)N(C)C)n(CCO)c3C[C@H]2CN1C(=O)c1ccccc1

>  <endpoint.result>
-0.092

$$$$
>  <compound>
C=CCC(OC(C)=O)[C@@H]1[C@@H](N(Cc2cc3ccccc3o2)C(=O)c2ccc(-c3ccccc3)cc2)c2cc(OCCCO)ccc2N1C(=O)c1ccc2ccccc2n1 (some centres not stated)

>  <endpoint.result>
0.848

$$$$
>  <compound>
NC(=O)NCC#Cc1ccc2c(c1)[C@]1(C(=O)N2)[C@H](C(=O)Nc2nc3ccccc3s2)[C@H]2C(=O)O[C@H](c3ccccc3)[C@H](c3ccccc3)N2[C@@H]1c1ccc(OCCO)cc1

>  <endpoint.result>
1.12

$$$$

What value of measured z-score is listed for COC(=O)[C@@]1(Cc2ccc(OC)cc2)[C@@H]2[C@@H](CC(=O)[C@H]2CC(=O)C(=O)N2CCCC2)CN1C(=O)c1ccccc1 ?
0.442

What value of measured z-score is listed for COc1ccc(CCNC(=O)[C@@]2(Sc3ccc(C)cc3)CC(=O)N(Cc3cc(C(F)(F)F)cc(C(F)(F)F)c3)[C@@H]2c2ccc(CO)cc2)cc1 ?
-1.01

What value of measured z-score is listed for CN(C)CCCNC(=O)[C@@]1(Cc2ccccc2I)c2ccccc2C(=O)N(Cc2ccccc2)[C@H]1c1ccc(CO)cc1 ?
-3.24

What value of measured z-score is listed for CCCCC(O)C1C=CC2C(=O)NC(=O)C2N1Nc1ccccn1 (configuration not stated) ?
0.932

What value of measured z-score is listed for COCCCN1C(=O)[C@@]2(Cc3ccccc31)c1ccccc1C(=O)N(Cc1ccccc1OC)[C@H]2c1ccc(CO)cc1 ?
-0.0955

What value of measured z-score is listed for O=c1cccc(-c2ccccc2C(F)(F)F)o1 ?
-3.23

What value of measured z-score is listed for C[N+](C)(C)CCCCCCNC(=O)[C@@H]1C[C@@H]2C(=O)N[C@@H](Cc3ccccc3)C(=O)N2[C@@H]1c1ccc(O)cc1 ?
-0.471

What value of measured z-score is listed for CCOC(=O)C1=C(C(=O)OCC)N(S(=O)(=O)CC[Si](C)(C)C)[C@H](c2ccccc2)CC1 ?
1.77
